Recorded MIC for the following compounds
Tested on: Streptococcus pyogenes 712
Assay: MIC by broth microdilution, SPY 712
Type: cell-based
Conditions: Streptococcus pyogenes, 712, read-out: MIC S PYO 712
Description: Antibacterial activity in vitro is investigated by broth microdilution method in Meuller-Hinton broth as recommended by NCCLS. All strains tested are clinical isolates either sensitive or resistant to natural glycopeptides. MIC values were determined using the CLSI-recommended broth microdilution procedure (Clinical and Laboratory Standards Institute, Methods for Dilution Antimicrobial Susceptibility Tests for Bacteria That Grow Aerobically; Approved Standard-Seventh Edition.). […]
metric.name: MIC

- CCCCCCOc1ccc(S(=O)(=O)NCCCCCCNC(=O)Oc2cc(O)c3c(c2)[C@@H](C(=O)O)NC(=O)[C@H]2NC(=O)[C@H](NC(=O)[C@@H]4NC(=O)[C@H](CC(N)=O)NC(=O)[C@H](NC(=O)[C@@H](CC(C)C)NC)[C@H](O)c5ccc(c(Cl)c5)Oc5cc4cc(c5O[C@@H]4O[C@H](CO)[C@@H](O)[C@H](O)[C@H]4O[C@H]4C[C@](C)(N)[C@H](O)[C@H](C)O4)Oc4ccc(cc4Cl)[C@H]2O)c2ccc(O)c-3c2)cc1 (atropisomer, axis not shown): 0.01 to 0.5 µg/mL
- CCCCOc1ccc(CCNC(=O)Oc2cc(O)c3c(c2)[C@@H](C(=O)NC2C4CC5CC(C4)CC2C5)NC(=O)[C@H]2NC(=O)[C@H](NC(=O)[C@@H]4NC(=O)[C@H](CC(N)=O)NC(=O)[C@H](NC(=O)[C@@H](CC(C)C)NC)[C@H](O)c5ccc(c(Cl)c5)Oc5cc4cc(c5O[C@@H]4O[C@H](CO)[C@@H](O)[C@H](O)[C@H]4O[C@H]4C[C@](C)(N)[C@H](O)[C@H](C)O4)Oc4ccc(cc4Cl)[C@H]2O)c2ccc(O)c-3c2)cc1 (some centres unmarked): 0.01 to 0.5 µg/mL
- CCOCCOCCNC(=O)Oc1cc(O)c2c(c1)[C@@H](C(=O)O)NC(=O)[C@H]1NC(=O)[C@H](NC(=O)[C@@H]3NC(=O)[C@H](CC(N)=O)NC(=O)[C@H](NC(=O)[C@@H](CC(C)C)NC)[C@H](O)c4ccc(c(Cl)c4)Oc4cc3cc(c4O[C@@H]3O[C@H](CO)[C@@H](O)[C@H](O)[C@H]3O[C@H]3C[C@](C)(N)[C@H](O)[C@H](C)O3)Oc3ccc(cc3Cl)[C@H]1O)c1ccc(O)c-2c1 (atropisomer, axis not shown): 1 to 2 µg/mL
- CCCCCOCCNC(=O)Oc1cc(O)c2c(c1)[C@@H](C(=O)NC1C3CC4CC(C3)CC1C4)NC(=O)[C@H]1NC(=O)[C@H](NC(=O)[C@@H]3NC(=O)[C@H](CC(N)=O)NC(=O)[C@H](NC(=O)[C@@H](CC(C)C)NC)[C@H](O)c4ccc(c(Cl)c4)Oc4cc3cc(c4O[C@@H]3O[C@H](CO)[C@@H](O)[C@H](O)[C@H]3O[C@H]3C[C@](C)(N)[C@H](O)[C@H](C)O3)Oc3ccc(cc3Cl)[C@H]1O)c1ccc(O)c-2c1 (some centres unmarked): 0.01 to 0.5 µg/mL
- CNCCOc1ccc(CCNC(=O)Oc2cc(O)c3c(c2)[C@@H](C(=O)NC2C4CC5CC(C4)CC2C5)NC(=O)[C@H]2NC(=O)[C@H](NC(=O)[C@@H]4NC(=O)[C@H](CC(N)=O)NC(=O)[C@H](NC(=O)[C@@H](CC(C)C)NC)[C@H](O)c5ccc(c(Cl)c5)Oc5cc4cc(c5O[C@@H]4O[C@H](CO)[C@@H](O)[C@H](O)[C@H]4O[C@H]4C[C@](C)(N)[C@H](O)[C@H](C)O4)Oc4ccc(cc4Cl)[C@H]2O)c2ccc(O)c-3c2)cc1 (some centres unmarked): 0.01 to 0.5 µg/mL
- CNCCCOc1ccc(NC(=O)Oc2cc(O)c3c(c2)[C@@H](C(=O)NC2C4CC5CC(C4)CC2C5)NC(=O)[C@H]2NC(=O)[C@H](NC(=O)[C@@H]4NC(=O)[C@H](CC(N)=O)NC(=O)[C@H](NC(=O)[C@@H](CC(C)C)NC)[C@H](O)c5ccc(c(Cl)c5)Oc5cc4cc(c5O[C@@H]4O[C@H](CO)[C@@H](O)[C@H](O)[C@H]4O[C@H]4C[C@](C)(N)[C@H](O)[C@H](C)O4)Oc4ccc(cc4Cl)[C@H]2O)c2ccc(O)c-3c2)cc1 (some centres unmarked): 1 to 2 µg/mL
- CCCCCOc1ccc(S(=O)(=O)NCCCCCCNC(=O)Oc2cc(O)c3c(c2)[C@@H](C(=O)O)NC(=O)[C@H]2NC(=O)[C@H](NC(=O)[C@@H]4NC(=O)[C@H](CC(N)=O)NC(=O)[C@H](NC(=O)[C@@H](CC(C)C)NC)[C@H](O)c5ccc(c(Cl)c5)Oc5cc4cc(c5O[C@@H]4O[C@H](CO)[C@@H](O)[C@H](O)[C@H]4O[C@H]4C[C@](C)(N)[C@H](O)[C@H](C)O4)Oc4ccc(cc4Cl)[C@H]2O)c2ccc(O)c-3c2)cc1 (atropisomer, axis not shown): 0.01 to 0.5 µg/mL
- CCCCCOc1ccc(CCNC(=O)Oc2cc(O)c3c(c2)[C@@H](C(=O)NC2C4CC5CC(C4)CC2C5)NC(=O)[C@H]2NC(=O)[C@H](NC(=O)[C@@H]4NC(=O)[C@H](CC(N)=O)NC(=O)[C@H](NC(=O)[C@@H](CC(C)C)NC)[C@H](O)c5ccc(c(Cl)c5)Oc5cc4cc(c5O[C@@H]4O[C@H](CO)[C@@H](O)[C@H](O)[C@H]4O[C@H]4C[C@](C)(N)[C@H](O)[C@H](C)O4)Oc4ccc(cc4Cl)[C@H]2O)c2ccc(O)c-3c2)cc1 (some centres unmarked): 0.01 to 0.5 µg/mL
